Origin of values: patent US20190134153A1

Listing: % activity of selected sequences
- STUDY_TARGET: ZIPK(h) (Homo sapiens, UniProt O43293)
- Sequence (O43293 whole entry): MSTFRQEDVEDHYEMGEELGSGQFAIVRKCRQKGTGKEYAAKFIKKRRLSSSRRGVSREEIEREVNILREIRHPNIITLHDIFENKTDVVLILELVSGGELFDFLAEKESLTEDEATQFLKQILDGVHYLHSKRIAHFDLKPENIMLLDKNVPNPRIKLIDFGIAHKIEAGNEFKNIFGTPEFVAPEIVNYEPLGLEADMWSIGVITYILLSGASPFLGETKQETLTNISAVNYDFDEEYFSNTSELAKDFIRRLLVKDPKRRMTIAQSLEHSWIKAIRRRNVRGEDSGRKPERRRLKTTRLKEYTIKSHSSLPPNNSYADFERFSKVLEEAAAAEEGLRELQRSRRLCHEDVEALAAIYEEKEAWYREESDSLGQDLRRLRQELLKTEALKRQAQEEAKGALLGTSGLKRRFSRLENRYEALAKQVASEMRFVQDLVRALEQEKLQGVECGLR
- PROTOCOL_DETAILS: Kinase Profiling Assay
- Format: biochemical
- CONDITION_LABEL: 100 μM
Answer in %, number only, no unit symbol.

Worked set:
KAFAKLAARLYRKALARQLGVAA [MMI-0400] | 13
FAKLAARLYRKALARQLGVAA [MMI-0300] | 28
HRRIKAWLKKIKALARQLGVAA [MMI-0500] | 1

Here is another sequence to look at.
(Q) Requested field: % activity. Item: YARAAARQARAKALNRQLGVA [MMI-0200]
(A) 67
